Source listed as patent US12545681B2.

Kindly supply the reported IC50 values for the records listed here.
System tested: Ba/F3-KIF5B-RET (Homo sapiens, UniProt P07949)
Construct: KIF5B (fusion partner, N-terminal part of kinesin-1 heavy chain, P33176); host or cells: Ba/F3 (murine pro-B cells); the other entry of the earlier key: KIF5B (P33176, Kinesin-1 heavy chain)
Method summary: Cell anti-proliferation (CellTiter-Glo), Ba/F3-KIF5B-RET cells
Type: cell-based
Run conditions: cell viability, 72 h incubation, CellTiter-Glo

| Compound | IC50 |
| --- | --- |
| CCn1ncc2c(Nc3cc(C)[nH]n3)nc([C@H]3CC[C@](OC)(C(=O)N[C@@H](C)c4ccc(-n5cc(F)cn5)nc4)CC3)nc21 [Compound C4] | < 10 nM |

Go through the list and state IC50 for each entry.
1. CCn1ncc2c(Nc3cc(C)[nH]n3)nc([C@H]3CC[C@](OC)(C(=O)N[C@@H](C)c4cnc(-n5cc(F)cn5)s4)CC3)nc21 [Compound C13]
2. CO[C@]1(C(=O)N[C@@H](C)c2cnc(-n3cc(F)cn3)cn2)CC[C@H](c2nc(Nc3cc(C)[nH]n3)c3cnn(CC4CC4)c3n2)CC1 [Compound C12]
3. CO[C@]1(C(=O)N[C@@H](C)c2cnc(-n3cc(F)cn3)cn2)CC[C@H](c2nc(Nc3cc(C)[nH]n3)c3cnn(C4CC4)c3n2)CC1 [Compound C20]
4. [2H]C([2H])([2H])n1ncc2c(Nc3cc(C)[nH]n3)nc([C@H]3CC[C@](OC)(C(=O)N[C@@H](C)c4cnc(-n5cc(F)cn5)cn4)CC3)nc21 [Compound C9]
5. CO[C@]1(C(=O)N[C@@H](C)c2ccc(-n3cc(F)cn3)nc2)CC[C@H](c2nc(Nc3cc(C)[nH]n3)c3ccn(C)c3n2)CC1 [Control Example 1, reference compound]

Marked response:
1. < 10 nM
2. < 10 nM
3. < 10 nM
4. < 10 nM
5. < 10 nM

Go through the list and state IC50 for each entry.
1. [2H]C([2H])([2H])n1ncc2c(Nc3cc(C)[nH]n3)nc([C@H]3CC[C@](OC)(C(=O)N[C@@H](C)c4ccc(-n5cc(F)cn5)nc4)CC3)nc21 [Compound C3]
2. CO[C@]1(C(=O)N[C@@H](C)c2cnc(-n3cc(F)cn3)cn2)CC[C@H](c2nc(Nc3cc(C)[nH]n3)c3cnn(CC(F)(F)F)c3n2)CC1 [Compound C23]
3. CO[C@]1(C(=O)N[C@@H](C)c2cnc(-n3cc(F)cn3)s2)CC[C@H](c2nc(Nc3cc(C)[nH]n3)c3cnn(C4CC4)c3n2)CC1 [Compound C14]
4. CO[C@]1(C(=O)N[C@@H](C)c2csc(-n3cc(F)cn3)n2)CC[C@H](c2nc(Nc3cc(C)[nH]n3)c3cnn(C4CC4)c3n2)CC1 [Compound C16]

Marked response:
1. < 10 nM
2. < 10 nM
3. < 10 nM
4. < 10 nM

Go through the list and state IC50 for each entry.
1. COCCn1ncc2c(Nc3cc(C)[nH]n3)nc([C@H]3CC[C@](OC)(C(=O)N[C@@H](C)c4cnc(-n5cc(F)cn5)cn4)CC3)nc21 [Compound C10]
2. CO[C@]1(C(=O)N[C@@H](C)c2cnc(-n3cc(F)cn3)cn2)CC[C@H](c2nc(Nc3cc(C)[nH]n3)c3cnn(C4CC(F)(F)C4)c3n2)CC1 [Compound C11]
3. CCn1ncc2c(Nc3cc(C)[nH]n3)nc([C@H]3CC[C@](OC)(C(=O)N[C@@H](C)c4csc(-n5cc(F)cn5)n4)CC3)nc21 [Compound C15]
4. CO[C@]1(C(=O)N[C@@H](C)c2ccc(-n3cc(F)cn3)nc2)CC[C@H](c2nc(Nc3cc(C)[nH]n3)c3cnn(COCC[Si](C)(C)C)c3n2)CC1 [Compound C2]

Marked response:
< 10 nM
10 to 50 nM
< 10 nM
> 50 nM

----------
System tested: Ba/F3-KIF5B-RET (Homo sapiens)
Construct: KIF5B (fusion partner, N-terminal part of kinesin-1 heavy chain, P33176); host or cells: Ba/F3 (murine pro-B cells); the other entry of the earlier key: KIF5B (P33176, Kinesin-1 heavy chain)
Sequence (P07949 713-1063 limits assumed): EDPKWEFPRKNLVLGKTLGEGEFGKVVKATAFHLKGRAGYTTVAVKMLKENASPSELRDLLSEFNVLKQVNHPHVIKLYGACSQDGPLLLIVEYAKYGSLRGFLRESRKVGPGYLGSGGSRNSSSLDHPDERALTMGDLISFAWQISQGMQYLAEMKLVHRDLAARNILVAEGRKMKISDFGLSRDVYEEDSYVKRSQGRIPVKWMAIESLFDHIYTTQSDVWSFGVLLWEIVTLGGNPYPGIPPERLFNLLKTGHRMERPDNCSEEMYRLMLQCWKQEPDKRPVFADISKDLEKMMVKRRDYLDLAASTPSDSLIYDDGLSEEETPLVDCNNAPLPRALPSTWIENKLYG
Method summary: Cell anti-proliferation (CellTiter-Glo), Ba/F3-KIF5B-RET cells
Assay type: cell-based
Run conditions: cell viability, 72 h incubation, CellTiter-Glo
Kindly supply the reported IC50 values for the records listed here.

Go through the list and state IC50 for each entry.
1. CO[C@]1(C(=O)N[C@@H](C)c2cnc(-n3cc(F)cn3)cn2)CC[C@H](c2nc(Nc3cc(C)[nH]n3)c3cn(CC(F)(F)F)nc3n2)CC1 [Control Example 3, reference compound]
2. CO[C@]1(C(=O)N[C@@H](C)c2ccc(-n3cc(F)cn3)nc2)CC[C@H](c2nc(Nc3cc(C)[nH]n3)c3cnn(C)c3n2)CC1
3. CCn1ncc2c(Nc3cc(C)[nH]n3)nc([C@H]3CC[C@](OC)(C(=O)N[C@@H](C)c4cnc(-n5cc(F)cn5)cn4)CC3)nc21

Marked response:
1. 10 to 50 nM
2. < 10 nM
3. < 10 nM

----------
Kindly supply the reported IC50 values for the records listed here.
System tested: Ba/F3-KIF5B-RET-V804L (Homo sapiens, UniProt P07949, V804L)
Construct: KIF5B (fusion partner, N-terminal part of kinesin-1 heavy chain, P33176); host or cells: Ba/F3 (murine pro-B cells); the other entry of the earlier key: KIF5B (P33176, Kinesin-1 heavy chain)
Method summary: Cell anti-proliferation (CellTiter-Glo), Ba/F3-KIF5B-RET-V804L cells
Assay type: cell-based
Run conditions: cell viability, 72 h incubation

Consider the following illustrative entries.
| Record smiles | System tested | IC50 |
| --- | --- | --- |
| CO[C@]1(C(=O)N[C@@H](C)c2cnc(-n3cc(F)cn3)cn2)CC[C@H](c2nc(Nc3cc(C)[nH]n3)c3cnn(CC(F)(F)F)c3n2)CC1 | Ba/F3-KIF5B-RET-V804L (Homo sapiens, UniProt P07949, V804L) | < 10 nM |
| CO[C@]1(C(=O)N[C@@H](C)c2cnc(-n3cc(F)cn3)cn2)CC[C@H](c2nc(Nc3cc(C)[nH]n3)c3cnn(C4COC4)c3n2)CC1 | Ba/F3-KIF5B-RET-V804L (Homo sapiens, UniProt P07949, V804L) | 10 to 50 nM |
| [2H]C([2H])([2H])n1ncc2c(Nc3cc(C)[nH]n3)nc([C@H]3CC[C@](OC)(C(=O)N[C@@H](C)c4cnc(-n5cc(F)cn5)cn4)CC3)nc21 | Ba/F3-KIF5B-RET-V804L (Homo sapiens, UniProt P07949, V804L) | < 10 nM |

Go through the list and state IC50 for each entry.
1. CO[C@]1(C(=O)N[C@@H](C)c2cnc(-n3cc(F)cn3)cn2)CC[C@H](c2nc(Nc3cc(C)[nH]n3)c3cnn(C)c3n2)CC1
2. [2H]C([2H])([2H])n1ncc2c(Nc3cc(C)[nH]n3)nc([C@H]3CC[C@](OC)(C(=O)N[C@@H](C)c4ccc(-n5cc(F)cn5)nc4)CC3)nc21
3. CCCn1ncc2c(Nc3cc(C)[nH]n3)nc([C@H]3CC[C@](OC)(C(=O)N[C@@H](C)c4cnc(-n5cc(F)cn5)cn4)CC3)nc21

Marked response:
1: < 10 nM; 2: < 10 nM; 3: 10 to 50 nM

----------
System tested: Ba/F3-KIF5B-RET (Homo sapiens, UniProt P07949)
Construct: KIF5B (fusion partner, N-terminal part of kinesin-1 heavy chain, P33176); host or cells: Ba/F3 (murine pro-B cells); the other entry of the earlier key: KIF5B (P33176, Kinesin-1 heavy chain)
Sequence (P07949 713-1063 limits assumed): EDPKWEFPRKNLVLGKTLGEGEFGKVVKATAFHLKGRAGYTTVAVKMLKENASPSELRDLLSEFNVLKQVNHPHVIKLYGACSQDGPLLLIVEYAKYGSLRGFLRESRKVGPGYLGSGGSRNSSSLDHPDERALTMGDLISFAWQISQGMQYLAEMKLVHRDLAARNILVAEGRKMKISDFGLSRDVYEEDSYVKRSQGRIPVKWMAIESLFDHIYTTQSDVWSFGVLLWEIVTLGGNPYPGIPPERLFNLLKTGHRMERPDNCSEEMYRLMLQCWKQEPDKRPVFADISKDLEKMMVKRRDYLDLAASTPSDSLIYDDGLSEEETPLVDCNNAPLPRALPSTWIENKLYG
Method summary: Cell anti-proliferation (CellTiter-Glo), Ba/F3-KIF5B-RET cells
Format: cell-based
Run conditions: cell viability, 72 h incubation, CellTiter-Glo
Kindly supply the reported IC50 values for the records listed here.

Consider the following illustrative entries.
| Record smiles | IC50 |
| --- | --- |
| CO[C@]1(C(=O)N[C@@H](C)c2ccc(-n3cc(F)cn3)nc2)CC[C@H](c2nc(Nc3cc(C)[nH]n3)c3cnn(CCF)c3n2)CC1 | < 10 nM |
| CO[C@]1(C(=O)N[C@@H](C)c2ccc(-n3cc(F)cn3)nc2)CC[C@H](c2nc(Nc3cc(C)[nH]n3)c3cnn(CC(F)F)c3n2)CC1 | < 10 nM |
| CO[C@]1(C(=O)N[C@@H](C)c2cnc(-n3cc(F)cn3)cn2)CC[C@H](c2nc(Nc3cc(C)[nH]n3)c3cnn(C)c3n2)CC1 | < 10 nM |
| CO[C@]1(C(=O)N[C@@H](C)c2cnc(-n3cc(F)cn3)cn2)CC[C@H](c2nc(Nc3cc(C)[nH]n3)c3cnn(C4COC4)c3n2)CC1 | 10 to 50 nM |

Go through the list and state IC50 for each entry.
1. CCCn1ncc2c(Nc3cc(C)[nH]n3)nc([C@H]3CC[C@](OC)(C(=O)N[C@@H](C)c4cnc(-n5cc(F)cn5)cn4)CC3)nc21
2. CO[C@]1(C(=O)N[C@@H](C)c2cnc(-n3cc(F)cn3)cn2)CC[C@H](c2nc(Nc3cc(C)[nH]n3)c3cnn(CC(F)F)c3n2)CC1

Marked response:
1: 10 to 50 nM; 2: < 10 nM
